tested on: Cytochrome P450 2C41 (gene expression); assay: Canine array fold induction of canine genes in kidney of dogs dosed with an agent (Table 11); format: in vivo; settings: dog, kidney, 0.3 mg/kg, canine kidney, 10 days
measurement_kind: fold induction at 10 days

{"compound": "C[C@]12CC[C@@H]3c4ccc(O)cc4CC[C@H]3[C@@H]1CC[C@@H]2O [Estradiol]", "target_system": "Cytochrome P450 2C41 (gene expression)", "measurement_kind": "fold induction at 10 days", "recorded_value": 1.7}

====

tested on: Cytochrome P450 2C41; experiment: Canine array gene expression profile of kidney from dog dosed with erythromycin estolate; type: in vivo; settings: dog, kidney, 100 mg/kg
measurement_kind: fold induction at 10 days

{"compound": "CCC(=O)O[C@H]1[C@H](O[C@@H]2[C@@H](C)[C@H](O[C@H]3C[C@@](C)(OC)[C@@H](O)[C@H](C)O3)[C@@H](C)C(=O)O[C@H](CC)[C@@](C)(O)[C@H](O)[C@@H](C)C(=O)[C@H](C)C[C@@]2(C)O)O[C@H](C)C[C@@H]1N(C)C [erythromycin estolate]", "recorded_value": 1.2}

====

test system: Glutathione S-transferase alpha subunit; test: Canine array gene expression profile of kidney from dog dosed with erythromycin estolate; type: in vivo; conditions: dog, kidney, 100 mg/kg

{"molecule": "CCC(=O)O[C@H]1[C@H](O[C@@H]2[C@@H](C)[C@H](O[C@H]3C[C@@](C)(OC)[C@@H](O)[C@H](C)O3)[C@@H](C)C(=O)O[C@H](CC)[C@@](C)(O)[C@H](O)[C@@H](C)C(=O)[C@H](C)C[C@@]2(C)O)O[C@H](C)C[C@@H]1N(C)C [erythromycin estolate]", "target_system": "Glutathione S-transferase alpha subunit", "fold induction at 10 days": 1.1}

====

Tested on: canine genes of the array
Test: Canine array fold induction of canine genes in liver of canines dosed with test agents (Table 11)
Format: in vivo
Conditions: dog, 0.3 mg/kg, 10196, Canine Liver, 0.3 mg/kg, 10 days, gene = c0 of the row
Text: Table 11 depicts the fold induction for canine genes in a canine array.

{"molecule": "C[C@]12CC[C@@H]3c4ccc(O)cc4CC[C@H]3[C@@H]1CC[C@@H]2O [Estradiol]", "fold induction at 10 days": 1}

====

Test system: Cytochrome P450 2C21 (gene expression)
Experiment: Canine array gene expression profile of liver from dog dosed with erythromycin estolate
Assay type: in vivo
Settings: dog, liver, 100 mg/kg
Procedure: For liver or kidney, about 0.15-0.20 g of tissue was weighed and placed in a 15 ml conical tube. All tissue were kept on dry ice when other samples were being weighed. About 3.8 ml of RLT buffer was added to the tube containing the sample. The RLT buffer® from Qiagen can be prepared beforehand by adding 10 μl betamercaptoethanol to each 1.0 ml of lysis buffer needed. The tissue was homogenized using the rotor-stator homogenizer for 45 seconds. […]

{"compound": "CCC(=O)O[C@H]1[C@H](O[C@@H]2[C@@H](C)[C@H](O[C@H]3C[C@@](C)(OC)[C@@H](O)[C@H](C)O3)[C@@H](C)C(=O)O[C@H](CC)[C@@](C)(O)[C@H](O)[C@@H](C)C(=O)[C@H](C)C[C@@]2(C)O)O[C@H](C)C[C@@H]1N(C)C [erythromycin estolate]", "fold induction at 10 days": 1.3}

====

tested on: canine genes of the array; test: Canine array fold induction of canine genes in liver of canines dosed with test agents (Table 11); assay type: in vivo; conditions: dog, 0.3 mg/kg, 10316, Canine liver, 0.3 mg/kg, 10 day, gene = c0 of the row
measurement_kind: fold induction at 10 days

{"substance_smiles": "C[C@]12CC[C@@H]3c4ccc(O)cc4CC[C@H]3[C@@H]1CC[C@@H]2O", "recorded_value": 1.2}

====

tested on: Cytochrome P450 2B (gene expression); test: Canine array fold induction of canine genes in kidney of dogs dosed with an agent (Table 11); type: in vivo; details: dog, kidney, 0.3 mg/kg, canine kidney, 10 days
measurement_kind: fold induction at 10 days

{"molecule": "C[C@]12CC[C@@H]3c4ccc(O)cc4CC[C@H]3[C@@H]1CC[C@@H]2O [Estradiol]", "measurement_kind": "fold induction at 10 days", "recorded_value": 1.2}

====

system: Cytochrome P450 2C21; assay: Canine array gene expression profile of kidney from dog dosed with erythromycin estolate; assay type: in vivo; conditions: dog, kidney, 100 mg/kg
measurement_kind: fold induction at 10 days

{"compound": "CCC(=O)O[C@H]1[C@H](O[C@@H]2[C@@H](C)[C@H](O[C@H]3C[C@@](C)(OC)[C@@H](O)[C@H](C)O3)[C@@H](C)C(=O)O[C@H](CC)[C@@](C)(O)[C@H](O)[C@@H](C)C(=O)[C@H](C)C[C@@]2(C)O)O[C@H](C)C[C@@H]1N(C)C [erythromycin estolate]", "measurement_kind": "fold induction at 10 days", "recorded_value": 1.1}

====

system: Cytochrome P450 2D (gene expression); assay: Canine array fold induction of canine genes in kidney of dogs dosed with an agent (Table 11); assay type: in vivo; conditions: dog, kidney, 0.3 mg/kg, canine kidney, 10 days
measurement_kind: fold induction at 10 days

{"substance_smiles": "C[C@]12CC[C@@H]3c4ccc(O)cc4CC[C@H]3[C@@H]1CC[C@@H]2O", "target_system": "Cytochrome P450 2D (gene expression)", "measurement_kind": "fold induction at 10 days", "recorded_value": 1.2}

====

system: canine genes of the array; test: Canine array fold induction of canine genes in kidney of canines dosed with test agents (Table 11); type: in vivo; conditions: dog, 0.3 mg/kg, 10089, canine kidney, 0.3 mg/kg, 10 days, gene = c0 of the row

{"molecule": "C[C@]12CC[C@@H]3c4ccc(O)cc4CC[C@H]3[C@@H]1CC[C@@H]2O [Estradiol]", "target_system": "canine genes of the array", "fold induction at 10 days": 1}

====

tested on: Glucose transporter; assay: Canine array gene expression profile of kidney from dog dosed with erythromycin estolate; format: in vivo; conditions: dog, kidney, 100 mg/kg

{"compound": "CCC(=O)O[C@H]1[C@H](O[C@@H]2[C@@H](C)[C@H](O[C@H]3C[C@@](C)(OC)[C@@H](O)[C@H](C)O3)[C@@H](C)C(=O)O[C@H](CC)[C@@](C)(O)[C@H](O)[C@@H](C)C(=O)[C@H](C)C[C@@]2(C)O)O[C@H](C)C[C@@H]1N(C)C [erythromycin estolate]", "fold induction at 10 days": 1.1}

====

test system: Cytochrome P450 2D (gene expression); experiment: Canine array gene expression profile of kidney from dog dosed with erythromycin estolate; format: in vivo; settings: dog, kidney, 100 mg/kg

{"compound": "CCC(=O)O[C@H]1[C@H](O[C@@H]2[C@@H](C)[C@H](O[C@H]3C[C@@](C)(OC)[C@@H](O)[C@H](C)O3)[C@@H](C)C(=O)O[C@H](CC)[C@@](C)(O)[C@H](O)[C@@H](C)C(=O)[C@H](C)C[C@@]2(C)O)O[C@H](C)C[C@@H]1N(C)C [erythromycin estolate]", "fold induction at 10 days": 1.1}

====

test system: canine genes of the array; experiment: Canine array fold induction of canine genes in liver of canines dosed with test agents (Table 11); assay type: in vivo; conditions: dog, 2 mg/kg, 10319, Canine liver, 2 mg/kg, 3 day, gene = c0 of the row

{"molecule": "CN(Cc1cnc2nc(N)nc(N)c2n1)c1ccc(C(=O)N[C@@H](CCC(=O)O)C(=O)O)cc1 [Methotrexate]", "fold induction at 3 days": 1.1}

====

system: canine genes of the array; assay: Canine array fold induction of canine genes in kidney of canines dosed with test agents (Table 11); assay type: in vivo; conditions: dog, 0.3 mg/kg, 10087, canine kidney, 0.3 mg/kg, 10 days, gene = c0 of the row
measurement_kind: fold induction at 10 days

{"substance_smiles": "C[C@]12CC[C@@H]3c4ccc(O)cc4CC[C@H]3[C@@H]1CC[C@@H]2O", "recorded_value": 1.6}

====

system: Cytochrome P450 2D (gene expression); assay: Canine array gene expression profile of liver from dog dosed with erythromycin estolate; assay type: in vivo; settings: dog, liver, 100 mg/kg
measurement_kind: fold induction at 10 days

{"compound": "CCC(=O)O[C@H]1[C@H](O[C@@H]2[C@@H](C)[C@H](O[C@H]3C[C@@](C)(OC)[C@@H](O)[C@H](C)O3)[C@@H](C)C(=O)O[C@H](CC)[C@@](C)(O)[C@H](O)[C@@H](C)C(=O)[C@H](C)C[C@@]2(C)O)O[C@H](C)C[C@@H]1N(C)C [erythromycin estolate]", "recorded_value": 1.1}
